# ASSAY: Permeability of the compound by pampa
# Type: ADME
# PARTICULARS: read-out: permeability
OBSERVABLE: Papp (×10⁻⁶ cm/s)

chem_smiles=O=C(N[C@H]1CCC[C@@H]1OCc1ccccc1)C1CCN(c2nc3cc(Cl)ccc3o2)CC1 observable=Papp observed_value=1.3

====

# ASSAY: Volume of distribution at steady state in dog at 0.25 mg/kg, iv
# Type: ADME, organism-based, Canis lupus familiaris
# Set-up: dose 0.25 mg/kg, route intravenous
# PARTICULARS: in vivo, read-out: Vdss
OBSERVABLE: Vd (L/kg)

chem_smiles=O=C(N[C@H]1CCC[C@@H]1OCc1ccccc1)C1CCN(c2nc3cc(Cl)ccc3o2)CC1 observed_value=1

Reference for the values: ChEMBL document CHEMBL2311506
